Record form. Attribute: apparent KD of MS2 coat protein. Fill in for each entry.
- Test system: MS2 coat protein
- protocolDescription: apparent KD of MS2 coat protein; designed switch direction (-1 OFF switch, 1 ON switch): 1; higher = weaker reporter binding
- conditionParameters: input ligand: FMN 200 uM
Answers are plain numbers, in nM.

Recorded results for 3 sequences are shown here.
GGAAGGAGGUCAGGAUAUGAAUGGAAAGUACAUGAGGAUCACCCAUGUUAUGGAGGAAGGAAACGUUAGAAGGGAUAAGGAAGG [AK SSNG2-V2-2] (Eterna round: R96, puzzle: Same State NG 2) | 32
CUGAGCAAUCAAGGAUAUCACGUCGAUUAGACGUGAGAAGGUGAUCAUUACAUGAGGAUCACCCAUGUGUUACAUGGAGCUCAG [Brourd's SSNG1/1-A2 mod 3] (Eterna round: R96, puzzle: Same State NG 1) | 395
GCUCGACUGAUGGCCUACAUGAGGAUCACCCAUGUGACUGGGCAGGAUAUCUAGAUGCAGGAUGUAGAGAAGGGCCUGUCGAGC [SameState NG3 #43] (Eterna round: R96, puzzle: Same State NG 3) | 589

Now examine the next entry.
Prompt line: Entry GCUCGAUGAGCUGUCUACAUGAGGAUCACCCAUGUAGAUGCGGAGGAUAUUUACGUGCUUUAUGUAGAGAAGGCCGUAUCGAGC [SameState NG3 #79] (Eterna round: R96, puzzle: Same State NG 3) needs its apparent KD of MS2 coat protein filled in; supply it.
Response line: 12

* * *

- System: MS2 coat protein
- protocolDescription: apparent KD of MS2 coat protein; designed switch direction (-1 OFF switch, 1 ON switch): 1; higher = weaker reporter binding
- conditionParameters: input ligand: microRNA oligo, concentration not stated
Each record's apparent KD of MS2 coat protein is compared with I = under 30 nM, II = from 30 nM up to 100 nM, III = 100 nM and over to give its class.

Worked cases, answers included:
UGGCUCAGACGAGGAUAUACGUGGUCACAUGAGGAUCACCCAUGUCUCGAGCUUCGGCUCGAGGCGUAGAAGGUGUCUGAGCCA [SSNG2/6-C2] (Eterna round: R96, puzzle: Same State NG 2) | III
CAAUAAAACACAGGAUAUACAGCCAGCCAGGCUGUAGAAGGGUGAGACAUGAGGAUCACCCAUGUACAAGUCGUAGGACUUGGG [Edlaticeen] (Eterna round: R96, puzzle: Same State NG 1) | II
GAGUGGCAGUUAGGAUAUAUAGUGAUAAUCACAAUAGAAGGAACUGACAUGAGGAUCACCCAUGUAGGACUAAUCCAGAGAGAG [Parity 40 - Jieux - Same State NG 1] (Eterna round: R96, puzzle: Same State NG 1) | I
GCGAUCUACCGGAAGGUAGAUCGGCUUGUACAUGAGGAUCACCCAUGUCUGUACAAGCUUUUUGCUCGUCUUAUGGG [salish99-hsa-208a-66] (Eterna round: R96, puzzle: Sensor for hsa-mir-208a) | I
AAACACGGCAAAACGCCGUGACAUGAGGAUCACCCAUGUACACAGGAUAUCAUGGCAAAACACCAUGAGAAGGGUGAUCAAGAC [Zaleala] (Eterna round: R96, puzzle: Same State NG 3) | I
UGUUAUUAGACAGGAUAUUGAUUGUAAAGUUUUUACAUGAGGAUCACCCAUGUUGUUCAUUCGAACAAGAAGGGUCAAGUUUUU [JR_SSNG2_Sub018] (Eterna round: R96, puzzle: Same State NG 2) | II
AUGCCAAAUCAAGGAUAUGGAGCCUUAUUGGCUCCAGAAGGUGGGACAUGAGGAUCACCCAUGUGGCAGUGGUCUAAUGACCAC [Fiskers NG1ss - 31] (Eterna round: R96, puzzle: Same State NG 1) | III
AGCUAUCGAAAACGAUAGCAAAAGCAUGUACAUGAGGAUCACCCAUGUCAUGUACAAGCUUUUUGCUCGUCUUGAAA [Zipper 23 - 9] (Eterna round: R96, puzzle: Sensor for hsa-mir-208a) | I

Prompt line: Class label required: GUACAUAUCAGAGGAUAUCACGUCGAUUAGACGUGAGAAGGCUGAUCACACAUGAAUAUUAAUACAUGAGGAUCACCCAUGUAC [SSNG1/13-A2] (Eterna round: R96, puzzle: Same State NG 1)
Response line: I

Prompt line: Class label required: GGAGCCGGUACUGAGGAUAUUCAUAUUAAAACAUGAGGAUCACCCAUGUAGGCCAGAAGGCCUUGGGAGAAGGCAGACCAGCUCG [Atgexeedri] (Eterna round: R96, puzzle: Same State 2)
Response line: III

Values from the supplement of paper PMC9170038
